Test: Pharmacokinetics test in rats
Assay type: in vivo, rat
Conditions: both sexes, rat, plasma, intravenous, 10 mg/kg as free alkali, n=6
Experimental: Pharmacokinetics Test in Rats Methods: Twenty-four female and male rats are randomLy allocated into an Example 1 compound group (10 mg/kg, as free alkali), an Example 3 compound group (10 mg/kg, as free alkali), an Example 12 compound group and an ambroxol hydrochloride group (10 mg/kg, as free alkali) (n=6); These rats are given corresponding products (dissolved in normal saline to adjust pH) intravenously. […]
Structures can show the parent of a compound that is named as a salt.
Reported values of clearance for individual entries
measuredEndpoint: clearance (mL/min/kg)

> print(dat)
                                   compound  measuredendpoint   unitinfo  endpointresult
1  Nc1c(Br)cc(Br)cc1CN[C@@H]1CCC[C@H]1O [Example 3]         clearance  mL/min/kg            47.7
2  Nc1c(Br)cc(Br)cc1CN[C@H]1CC[C@H](O)CC1 [Ambroxol hydrochloride, reference compound]         clearance  mL/min/kg             101
3  Nc1c(Br)cc(Br)cc1CNC12CC3CC(CC(O)(C3)C1)C2 [Example 1]         clearance  mL/min/kg            34.9
4  Nc1c(Br)cc(Br)cc1CNC1C2CC3CC1CC(O)(C3)C2 (stereo not shown) [Example 12]         clearance  mL/min/kg            35.8
